Give LC50 for every item shown.
# experimental details: Cytotoxicity against human MCF7 cells after 48 hrs by MTT assay
# Format: functional
# condition notes: MCF7, 48 h
Numbers only, in µM.

Parameters: items (list). Returns: LC50 for each item.
1. CC(C)=CCC/C(C)=C\C(N1CCOCC1)N1C(c2ccccc2)CC(O)N1c1ccc([N+](=O)[O-])cc1[N+](=O)[O-] (configuration not stated)
2. O=[N+]([O-])c1ccc(N2C(O)CC(c3ccccc3)N2C(c2ccc3c(c2)OCO3)N2CCOCC2)c([N+](=O)[O-])c1 (configuration not stated)
3. O=[N+]([O-])c1ccc(N2C(O)CC(c3ccccc3)N2C(c2c[nH]c3ccccc23)N2CCOCC2)c([N+](=O)[O-])c1 (configuration not stated)
4. O=[N+]([O-])c1ccc(N2C(O)CC(c3ccccc3)N2C(c2ccccn2)N2CCOCC2)c([N+](=O)[O-])c1 (configuration not stated)
5. O=[N+]([O-])c1ccc(N2C(O)CC(c3ccccc3)N2C(c2ccco2)N2CCOCC2)c([N+](=O)[O-])c1 (configuration not stated)

[40.4, 87.2, 76.3, 52.3, 82]

---

# Tested on: Pseudomonas aeruginosa
# experimental details: Antibacterial activity against Pseudomonas aeruginosa after 24 hrs by two fold dilution method
# Assay type: functional
measure: log10 of MIC (log10 of the value in µg/mL)
For clarity, the numbers are log10 values of MIC expressed in µg/mL.

See these solved cases before continuing.
>  <compound>
CN(C)c1ccc(C(N2CCOCC2)N2C(c3ccccc3)CC(O)N2c2ccc([N+](=O)[O-])cc2[N+](=O)[O-])cc1 (stereo unspecified)

>  <result value>
1.81

$$$$
>  <compound>
O=[N+]([O-])c1ccc(N2C(O)CC(c3ccccc3)N2C(c2c[nH]c3ccccc23)N2CCOCC2)c([N+](=O)[O-])c1 (stereo unspecified)

>  <result value>
0.90

$$$$
>  <compound>
O=C(O)c1cn(C2CC2)c2cc(N3CCNCC3)c(F)cc2c1=O

>  <result value>
0.00

$$$$

Go through the list and state log10 of MIC for each entry.
1. O=[N+]([O-])c1ccc(N2C(O)CC(c3ccccc3)N2C(c2ccco2)N2CCOCC2)c([N+](=O)[O-])c1 (stereo unspecified)
2. CC(C)=CCC/C(C)=C\C(N1CCOCC1)N1C(c2ccccc2)CC(O)N1c1ccc([N+](=O)[O-])cc1[N+](=O)[O-] (stereo unspecified)
3. O=[N+]([O-])c1ccc(N2C(O)CC(c3ccccc3)N2C(c2ccc(O)cc2)N2CCOCC2)c([N+](=O)[O-])c1 (stereo unspecified)
4. O=[N+]([O-])c1ccc(N2C(O)CC(c3ccccc3)N2C(c2ccc3c(c2)OCO3)N2CCOCC2)c([N+](=O)[O-])c1 (stereo unspecified)
5. O=[N+]([O-])c1ccc(N2C(O)CC(c3ccccc3)N2C(c2ccccn2)N2CCOCC2)c([N+](=O)[O-])c1 (stereo unspecified)

1.81
0.00
1.18
0.30
1.51

Hello, I would appreciate it if you could give log10 of MIC for each entry below.
1. O=[N+]([O-])c1ccc(N2C(O)CC(c3ccccc3)N2C(c2cncs2)N2CCOCC2)c([N+](=O)[O-])c1 (stereo unspecified)
2. O=[N+]([O-])c1ccc(N2C(O)CC(c3ccccc3)N2C(c2ccc(Cl)cc2)N2CCOCC2)c([N+](=O)[O-])c1 (stereo unspecified)

1: 1.81; 2: 1.81
